These measurements were taken from ChEMBL document CHEMBL1649544.

# System: Staphylococcus aureus
# protocolText: Antibacterial activity against Staphylococcus aureus RN4220 harboring aadD and tet(L) gene by CLSI method
# Assay type: functional
# maps each entry to its MIC

| smilesRepresentation | MIC |
| --- | --- |
| CN(C)[C@@H]1C(O)=C(C(N)=O)C(=O)[C@@]2(O)C(O)=C3C(=O)c4c(O)cccc4[C@@](C)(O)[C@H]3C[C@@H]12 | 64 µg/mL |
| CC[C@H]1OC(=O)[C@H](C)[C@@H](O[C@H]2C[C@@](C)(OC)[C@@H](O)[C@H](C)O2)[C@H](C)[C@@H](O[C@@H]2O[C@H](C)C[C@H](N(C)C)[C@H]2O)[C@](C)(O)C[C@@H](C)C(=O)[C@H](C)[C@@H](O)[C@]1(C)O | 0.25 µg/mL |
| CC[C@@H]1CCN[C@H](C(=O)N[C@@H]([C@H]2O[C@H](SC)[C@H](O)[C@@H](O)[C@H]2O)[C@H](C)Cl)C1 | 0.25 µg/mL |
| CC1=C\[C@@H](O)CC(=O)Cc2nc(co2)C(=O)N2CCC=C2C(=O)O[C@H](C(C)C)[C@H](C)/C=C/C(=O)NC\C=C\1 | 4 µg/mL |
